system: SK-MEL-28 melanoma; assay: NCI tumour cell line growth inhibition, 48 h
TGI for assorted compounds
Quick reminder: number only, in µM, skip the unit.

// known answers, use as guide
{"compound": "CCn1c2ccc(C(=O)CCCN3CCCCC3)cc2c2cc(C(=O)CCCN3CCCCC3)ccc21", "system.tested": "SK-MEL-28 melanoma", "recorded.value": 34.8}
{"compound": "CN(C)CCCNC(=O)c1ccc2c(c1)oc1cc3ccccc3c(=O)n12", "system.tested": "SK-MEL-28 melanoma", "recorded.value": 29.3}
{"compound": "COc1cccc2c1C(=O)c1c(O)c3c(c(O)c1C2=O)C[C@H](O)C[C@@H]3OC1CC(N)C(O)C(C)O1 (some centres undefined)", "system.tested": "SK-MEL-28 melanoma", "recorded.value": 9.13}

// switching to the query compound
q: # TGI lookup, item CC(C)C(CC(=O)OCC(CO)OC(=O)CC(C(C)C)C(C)C)C(C)C (centres undefined)
a: 30.3

This collection of values is drawn from PubChem BioAssay (NCI).
